TESTED_ON: Lipolase® 100L (Thermomyces lanuginosus, UniProt O59952)
Construct: purchased Sigma-Aldrich
PROTOCOL_DESCRIPTION: Lipase storage stability in liquid formulations at 37° C. (pNP-valerate activity)
Format: biochemical, Thermomyces lanuginosa
RECORDED_CONDITIONS: base formulation I. (Lipolase 0.2 wt%, tested compound 2.5 wt%); 14 d storage at 37° C.
Protocol: The storage stability of Lipase was assessed at 37° C. Base test formulations were manufactured by making base formulations I to V by mixing the components according to Table 1. […] Lipolase activity at certain points in time as indicated in Table 2 was be determined by employing pNitrophenol-valerate (2.4 mM pNP-C5 in 100 mM Tris pH 8.0, 0.01% Triton X100) as a substrate. The absorption at 405 nm was measured at 20° C. every 30 seconds over 5 minutes. […]
# lipase activity, 14 d per entry
All answers are understood in %, so give the number only.

Some solved entries appear below for comparison.
| COMPOUND | lipase activity, 14 d / % |
| --- | --- |
| CCOC(=O)C(=O)OCC [B.3, diethyloxalate, reference compound] | 70 |
| O=C(O)CC(O)(CC(=O)O)C(=O)O [B.1, citric acid, reference compound] | 73 |
| CCOC(=O)CC(CC(=O)OCC)(OC(C)=O)C(=O)OCC [A.5, Acetyltriethylcitrate] | 92 |

Req: Data request, read-out lipase activity, 14 d, for CCCCOC(=O)CC(CC(=O)OCCCC)(OC(C)=O)C(=O)OCCCC [A.4, Acetyltributylcitrate]
Resp: 93

Req: Data request, read-out lipase activity, 14 d, for CCOC(=O)CC(O)(CC(=O)OCC)C(=O)OCC [A.1, Triethylcitrate]
Resp: 94

Req: Data request, read-out lipase activity, 14 d, for CC(=O)OCC(COC(C)=O)OC(C)=O [B.4, glyceroltriacetate (triacetine), reference compound]
Resp: 72

Req: Data request, read-out lipase activity, 14 d, for O=C([O-])CC(O)(CC(=O)[O-])C(=O)[O-].[Na+].[Na+].[Na+] [B.2, citric acid trisodiumsalt, reference compound]
Resp: 68

Req: Data request, read-out lipase activity, 14 d, for CCCOC(=O)CC(O)(CC(=O)OCCC)C(=O)OCCC [A.2, Tripropylcitrate]
Resp: 94

----------
# lipase activity, 28 d per entry
TESTED_ON: Lipolase® 100L (Thermomyces lanuginosus, UniProt O59952)
Construct: purchased Sigma-Aldrich
Sequence (O59952 23-291): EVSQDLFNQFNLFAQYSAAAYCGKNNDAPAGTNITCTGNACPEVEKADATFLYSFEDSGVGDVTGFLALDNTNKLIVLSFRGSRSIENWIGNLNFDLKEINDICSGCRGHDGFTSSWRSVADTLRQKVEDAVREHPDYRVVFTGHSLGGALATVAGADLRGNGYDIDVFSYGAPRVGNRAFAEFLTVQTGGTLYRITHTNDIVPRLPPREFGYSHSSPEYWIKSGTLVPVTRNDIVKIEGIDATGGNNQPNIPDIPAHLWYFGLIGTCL
PROTOCOL_DESCRIPTION: Lipase storage stability in liquid formulations at 37° C. (pNP-valerate activity)
Format: biochemical, Thermomyces lanuginosa
RECORDED_CONDITIONS: base formulation V. (Lipolase 0.2 wt%, tested compound 2.0 wt%); 28 d storage at 37° C.
All answers are understood in %, so give the number only.

Req: Data request, read-out lipase activity, 28 d, for CCOC(=O)C(=O)OCC [B.3, diethyloxalate, reference compound]
Resp: 56

Req: Data request, read-out lipase activity, 28 d, for O=C(O)CC(O)(CC(=O)O)C(=O)O [B.1, citric acid, reference compound]
Resp: 52

Req: Data request, read-out lipase activity, 28 d, for CCCCOC(=O)CC(O)(CC(=O)OCCCC)C(=O)OCCCC [A.3, Tributylcitrate]
Resp: 80

Req: Data request, read-out lipase activity, 28 d, for CCCCOC(=O)CC(CC(=O)OCCCC)(OC(C)=O)C(=O)OCCCC [A.4, Acetyltributylcitrate]
Resp: 80

Req: Data request, read-out lipase activity, 28 d, for O=C(CC(O)(CC(=O)OCc1ccccc1)C(=O)OCc1ccccc1)OCc1ccccc1 [A.8, Tribenzylcitrate]
Resp: 82

Req: Data request, read-out lipase activity, 28 d, for CCOC(=O)CC(O)(CC(=O)OCC)C(=O)OCC [A.1, Triethylcitrate]
Resp: 81

----------
TESTED_ON: Lipolase® 100L (Thermomyces lanuginosus, UniProt O59952)
Construct: purchased Sigma-Aldrich
PROTOCOL_DESCRIPTION: Lipase storage stability in liquid formulations at 37° C. (pNP-valerate activity)
Format: biochemical, Thermomyces lanuginosa
RECORDED_CONDITIONS: base formulation III. (Lipolase 0.2 wt%, tested compound 2.0 wt%); 28 d storage at 37° C.
EXPERIMENTAL_READOUT: lipase activity, 28 d
In your response, put the unit directly after the numeric value.

Some solved entries appear below for comparison.
| COMPOUND | EXPERIMENTAL_READOUT | REPORTED_RESULT |
| --- | --- | --- |
| O=C(O)CC(O)(CC(=O)O)C(=O)O [B.1, citric acid, reference compound] | lipase activity, 28 d | 39% |
| CCCOC(=O)CC(O)(CC(=O)OCCC)C(=O)OCCC [A.2, Tripropylcitrate] | lipase activity, 28 d | 90% |
| CCOC(=O)C(=O)OCC [B.3, diethyloxalate, reference compound] | lipase activity, 28 d | 40% |
| CCOC(=O)CC(O)(CC(=O)O)C(=O)O (stereo not drawn) [A.6, Monoethylcitrate] | lipase activity, 28 d | 79% |
| O=C([O-])CC(O)(CC(=O)[O-])C(=O)[O-].[Na+].[Na+].[Na+] [B.2, citric acid trisodiumsalt, reference compound] | lipase activity, 28 d | 44% |

API: the following record is the query input.
Req: Data request, read-out lipase activity, 28 d, for CCOC(=O)CC(CC(=O)OCC)(OC(C)=O)C(=O)OCC [A.5, Acetyltriethylcitrate]
Resp: 80%

----------
# lipase activity, 3 d per entry
TESTED_ON: Lipolase® 100L (Thermomyces lanuginosus, UniProt O59952)
Construct: purchased Sigma-Aldrich
PROTOCOL_DESCRIPTION: Lipase storage stability in liquid formulations at 37° C. (pNP-valerate activity)
Type: biochemical, Thermomyces lanuginosa
RECORDED_CONDITIONS: base formulation V. (Lipolase 0.2 wt%, tested compound 2.0 wt%); 3 d storage at 37° C.
All answers are understood in %, so give the number only.

| COMPOUND | UNIT_OF_MEASUREMENT | REPORTED_RESULT |
| --- | --- | --- |
| CCOC(=O)CC(O)(CC(=O)OCC)C(=O)OCC [A.1, Triethylcitrate] | % | 96 |
| CCCCOC(=O)CC(O)(CC(=O)OCCCC)C(=O)OCCCC [A.3, Tributylcitrate] | % | 97 |
| CCOC(=O)C(=O)OCC [B.3, diethyloxalate, reference compound] | % | 92 |
| CCCCOC(=O)CC(CC(=O)OCCCC)(OC(C)=O)C(=O)OCCCC [A.4, Acetyltributylcitrate] | % | 100 |

API: the following record is the query input.
Req: Data request, read-out lipase activity, 3 d, for O=C(O)CC(O)(CC(=O)O)C(=O)O [B.1, citric acid, reference compound]
Resp: 93
